# Assay system: T1, Human CD98 ECD with N-terminal His-tag (human, UniProt P08195 105-529)
# T1 construct: The entry includes the linker and the polyhistidine tag; also called huCD98 ECD
# T1 sequence: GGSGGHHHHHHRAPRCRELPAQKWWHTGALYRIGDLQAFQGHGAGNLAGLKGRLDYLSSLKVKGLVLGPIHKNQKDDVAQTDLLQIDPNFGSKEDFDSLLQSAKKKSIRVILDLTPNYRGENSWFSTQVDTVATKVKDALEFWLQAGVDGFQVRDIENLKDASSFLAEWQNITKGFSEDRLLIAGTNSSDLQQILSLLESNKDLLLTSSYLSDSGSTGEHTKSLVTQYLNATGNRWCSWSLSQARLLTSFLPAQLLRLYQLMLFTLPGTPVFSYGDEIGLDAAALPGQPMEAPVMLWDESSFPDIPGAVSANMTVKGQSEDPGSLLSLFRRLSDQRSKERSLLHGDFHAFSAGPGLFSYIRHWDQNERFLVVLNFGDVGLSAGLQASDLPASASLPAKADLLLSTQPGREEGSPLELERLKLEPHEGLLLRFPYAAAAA
# Test name: SPR (Biacore), recombinant CD98 ECD
Reported endpoint: kon

- Binder: "huAb108 (antibody, human IgG1, kappa, L234A L235A, V domains shown, Framework re-engineered humanized clone (parent huAb15v2); also called CL-huAb108) VH: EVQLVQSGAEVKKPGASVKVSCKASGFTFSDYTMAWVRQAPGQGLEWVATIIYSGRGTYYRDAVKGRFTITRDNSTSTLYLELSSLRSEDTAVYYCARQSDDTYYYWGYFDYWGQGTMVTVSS VL: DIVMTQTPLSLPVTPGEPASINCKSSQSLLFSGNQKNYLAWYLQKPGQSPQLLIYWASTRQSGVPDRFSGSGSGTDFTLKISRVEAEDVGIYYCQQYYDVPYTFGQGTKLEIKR"
  Reported endpoint: "kon"
  Value reported: "75000 M⁻¹ s⁻¹"
